Test: Cytotoxicity against human CCD-986Sk cells assessed as cell viability incubated for 48 hrs by MTT assay
Format: toxicity, cell-based
Measured endpoint: IC50 at 48 h (µM)
Your answer should be a plain number; it is taken to be in µM.

In plain terms, CCN(CC)c1ccc(C=O)c(OCc2cn(-c3ccc(S(N)(=O)=O)cc3)nn2)c1 has a documented IC50 at 48 h of 185

Reported IC50 at 48 h for Cc1ccc(C(C)C)c(OCc2cn(-c3ccc(S(N)(=O)=O)cc3)nn2)c1 was 13.1

Form: compound = NS(=O)(=O)c1ccc(-n2cc(COc3ccc(Cl)cc3Cl)nn2)cc1 ; IC50 at 48 h = 78.2

// NS(=O)(=O)c1ccc(-n2cc(COc3ccc([N+](=O)[O-])cc3)nn2)cc1 : IC50 at 48 h value = 69.8
